Experimental system: alpha-synuclein fibrils, P37840
Experiment description: SPR, captured mAb
Experimental context: remark: other sources report otherwise
Measurement kind: koff

Challenge: Provide measured koff value, entry: ACI-7067-1102G3-Ab1 (antibody, V domains shown) VH: EVKLEESGGGLVQPGGSMKLSCAASGFTFSDAWMNWVRQSPEKGLEWVAEIRNKAHNHATYYAESVKGRFTISGDDSKSSVYLQMNNLRAEDTGIYYCTIYSYWGQGTLVTVSA VL: SIVMTQTPKFLLVSAGDRVTITCKASQSVTKDVAWYQQKPGQSPKLLIYSTSNRYSGVPDRFTGSGYGTDFTFTINTVQTEDLAVYFCQQDYRIPYTFGGGTKLEIK
Response given: 0.00135 s⁻¹
